- assay.overview: label from the status in PepcDB records
parameter.measured: protein production

>>> test_result("KRITRPGNTDDPSGGNKVLLLSIQNPLYPITVDVLYTVCNPVGKVQRIVIFKRNGIQAMVEFESVLCAQKAKAALNGADIYAGCCTLKIEYARPTRLNVIRNDNDSWDYTKPYLGRR")
"not failed"
>>> test_result("MPTLGFRFRAYTDEQTLRALKAQLKSACKIYNTLRWADIYFYQRDGKGLTRTELRQLALDLRKQDDEYKQLYSQVVQQVADRYYEAKKRFFEGLAHFPKEKKPHKHYSLVYPQYGWKILQVREIRKGSKKKLITLKLSNLGTFKVIVHRDFPLDKVKRVVVKLTRSERIYITFVVDHEFPKLPNTGKVVAIDVGVEKLIVTSDGEYFPNLRPYEKALWKVKHLHRELSRKKFLSHNWFKAKVKLARAYEYLKNLRTDLYMKLGKWFAEHYDVVVMEGIHVKQLIGKSLRSLRRRLSDVAFSELRDLIKYQLEKYGKKLILVNPAYTSKTCAKCGYVKEDLSLSDRVFVCPNCGWIADRDYNASLNILRGSGSERPLVWSSALYQYSGMAELLEHHHHHH")
"not failed"
>>> test_result("MTKTALVLGTVATLAVASVAAPAPAEARNGIGPFIGGLAAGALIAGVASNAYAYGPGYGYYGGGPYYGGGPYYGYAPRYVGYYGGPAYYGGGYGWGGPRYYRPRPVYYGYRSYYRPYRGGYYGAPVIRAGYGPGWGGHRHWHHHRHW")
"failed"
>>> test_result("YNFSFLSPQGLSFASQGPSAPFWSVFTPRVIGTAVARYNFAARDMRELSLREGDVVRIYSRIGGDQGWWKGETNGRIGWFPSTYVEEEGIQ")
"failed"
>>> test_result("MELQLAIDLLNKEEAAKLAQKVEEYVDIVEIGTPIVINEGLPAVQHLNENINNAKVLADLKIMDAADYEVSQAVKYGADIVTILGVAEDASIKAAVEEAHKHGKALLVDMIAVQNLEQRAKELDEMGADYIAVHTGYDLQAEGKSPLDSLRTVKSVIKNSKVAVAGGIKPDTIKDIVAEDPDLVIVGGGIANADDPVEAAKQCRVAIEGK")
"failed"
>>> test_result("YLKDLSLLISNDKQTILYAPTWKGNSVSKVKNDVFQIISDMNYLEEKIGSDYNVLIKVHPFLYSEASKVSELKGKLIPDFIDTNQLLSTVDILITDYSSIFFDFLVTDRPILFYMWDADDYNKQRGKYINNEDLPGPVLYNVRELVEAIGNIHQVKSEFQTNYEKNKVKFTNHDDGNVTKRVVEKIFK")
"failed"
>>> test_result("MLTLAPCGRGPCAARGEGASRPVLTKSHSSSRLKPTSAGQHPGAGRGPLAWGMTEPVPVAPFPSVFGGVQQLRPDVFRVRLPLVNIFLMGVPGGDWVLVDTGMPGTAGLIRQAAAQVYGARAPQAIVLTHGHFDHIGALHALLAEWNVPVYAHPDELPHLTGEVPYRFPDPTVGGLMSLTSPLFLPGPYDFRPQVRTLPEDGTVPELPGWRWVHTPGHTEGHVSLWREADRLLIAGDAVVTTPQETVPGALASTPTVLRRPPAYYTPNWNATRDSVRTLAALRPALVATGHGHPLTDDSLGDALTRLADDFDHDPNGRPAHGWYLGHPAPMQKPRPGEPDPMRTLFLGALGAAGALWLLGRRRR")
"failed"
>>> test_result("MPHVRPSNAWRFLRTLWLGAWLAGWALLAQAQQLAPVPEFGARVVDQSGVLDAAQRQRLEAQLAALEQRKGAQVAVLIVPSTAPETIEQYATRAFEKWKIGRDKVDDGVLLLMASDDRALRIEVGYGLEGAIPDSAAGRIINEYIVPRLRAGDWPGAVQAGVTALERRIEGEELPPPAASGRDEGSRLAGIRGWLGENGIAALVVLLILPGPIAAALAGVGVAIYMQSISAGLAMALLVLGIKVIIKALPSGGGGGGGGGGGSGGGGFGGWRGGSRGGSGSGGFGGFRGGGGGRSGGGGASGRWLEHHHHHH")
"failed"
>>> test_result("DVKEFCKKSLRVRKRQLKDLLYSLEDDNKELFERVIKLFENFKNRDEIFYEKISEEIVWTVKKNILFVNIEEGILKPQSKLDLLAIREILDEIKT")
"failed"
>>> test_result("MRIRFSRCASPRGKSSTGVIVPVCSAIYSIRRFWRWNKMKISVVIPTFNRCHLLAEAINSALDQASSELEVEAVIVDDESDDGTAAWLETAFAGEHRVRVLVNGRGKRPAGARNTGILAARHPKVGVIFSRARYEQDETEVPYMDPNFECKLCYASIATEDKDAVVFDRSYFGHLLKYSCYFNLSAVVMTADAARQLMSESLHIAEDFKFWVRLSHEQIFACLKVPQIRYRSHSANIPFKADKDPAGNTPSMLHTYRLMLGYPGLARSNREQLRKHMAKEYFDWAYRCSRKGRLAEALRLRLALFDLLWKNVVACVKLPWIGLRYRADRVGSTEQ")
"failed"
>>> test_result("MLIRPTLEPDITWLPDVERSAAQAFVSWPALAWLAQGDVMDCAAHRAFVEAGGSWVAQDATGRIVGFACARLADQALHLHEISVRQEAQGQGVGRRLLQQVVDAGRCAGVRELTLTTFVDVPWNAPFYARFGFEMLQESRLCERLRGILASEHAHGLLGRCAMRLNVGL")
"failed"
>>> test_result("MKRTVALAASLSLLWLLLSGYWHDPLLLGFGLLSVGAVVALSLRMGIVDAEGVPLRQIPGLITYLPWLAWQVVLSAITVARIVLSPKLSISPTLAAIPAAPKTAIGQVILANSITLTPGTLSLDLDDGAVLVHGLCAAGIDDLMTGEMGRRVAALDGRGAP")
"failed"
>>> test_result("MDSPIINEQFWDALFFNGTMPWDRSQTPNELKHYLKRIADKTHSVFIPGCGAAYEVSHFVDCGHDVIAMDYSAEAVNLAKSQLGQHQDKVMLGDVFNADFSREFDVIYERAFLAALPREIWGDYFAMIERLLPSNGLLVGYFVISDDYRSRFPPFCLRSGEIEQKLEANFHLIESTPVTDSVDVFKGKEQWMVWQKLEHHHHHH")
"failed"
